Tested on: HMLE_sh_eGFP viability, CellTiter-Glo luminescence, 72 h
RUN_DESCRIPTION: cytotoxicity in HMLE control line with eGFP shRNA, dose response, counter-screen for HMLE_sh_ECad selective toxicity project, cell-based, HMLE_sh_eGFP, luminescence (AID 463074);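 note: counterscreen control line to flag general toxicity for the HMLE_sh_ECad screen; potency for loss of viability as luminescence drops below DMSO wells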
AC50 values for the compounds below.
RESULT_TYPE: AC50

# COMPOUND, RESULT
data = [
    ("O=C(N/N=C/c1c[nH]c2ccccc12)C1CC1(c1ccccc1)c1ccccc1 (stereo unspecified)", "7.04 µM"),
    ("O=C(NC(=S)Nc1cccc(Cl)c1N1CCCCC1)c1ccc2c(c1)OCCO2", "1.52 µM"),
    ("CN(CCO)c1cc(Sc2nc3ccccc3s2)c2nonc2c1[N+](=O)[O-]", "2.49 µM"),
    ("CCCCNC(=O)c1ccc(Cn2c(=S)[nH]c3c([nH]c4ccc(OC)cc43)c2=O)cc1", "1.38 µM"),
    ("CCc1c(C2(O)CCCCC2)[nH]c2ccc(C(F)(F)F)cc12", "3.56 µM"),
    ("O=C1/C(=C\\c2cc(Br)cc(Br)c2O)SC(=S)N1Cc1ccccc1", "0.906 µM"),
    ("O=C(Nc1ccc(Cl)cc1)N1CCCN(c2ccc(C(F)(F)F)cc2[N+](=O)[O-])CC1", "6.57 µM"),
    ("CCC(C)n1c(-c2cccs2)nc2nc3ccccc3nc21 (stereo unspecified)", "15.5 µM"),
    ("Cc1ccc(S(=O)(=O)N2CCCCC2)cc1NC(=O)Cn1ncc(Cl)c(Cl)c1=O", "2.44 µM"),
    ("O=C(/C=C/c1ccccc1[N+](=O)[O-])c1ccccc1Br", "3.64 µM"),
    ("S=C(Nc1ccccc1)Nc1nc2ccccc2n1CCOc1ccc(Br)cc1", "14 µM"),
    ("CCCCOc1ccc(C(=O)Nc2ccc3c(c2)OCO3)cc1", "3.66 µM"),
    ("Cc1ccc2[nH]c3nc(N/N=C/c4cccc(O)c4)nnc3c2c1", "0.248 µM"),
    ("C/C(=N/NC(=O)c1ccc(-c2ccccc2)cc1)c1cc(O)cc(O)c1", "3.85 µM"),
    ("Cc1ccc(Oc2nc(CN3CCOCC3)nc3sc4c(c23)CCC(C)C4)cc1C (stereo unspecified)", "6.32 µM"),
    ("Cc1c(-c2cccc(Cl)c2)nc2ccccc2c1C(=O)OC/C(O)=C(\\C#N)c1nc2ccccc2[nH]1", "3.12 µM"),
    ("CC1=CC(=O)C(C(C)C)=C/C1=C(\\c1cc(C(C)C)c(OP(=O)(O)O)cc1C)c1ccccc1C(=O)O", "3.6 µM"),
    ("O=c1[nH]c2ccccc2n1C1CCN(CCCC(c2ccc(F)cc2)c2ccc(F)cc2)CC1", "6.27 µM"),
    ("Cc1cc(C)c(C(=O)/C=C/c2ccc(C(C)C)cc2)c(=O)[nH]1", "10.1 µM"),
    ("Cc1cc(C)c2c(c1)/C(=C/C(=O)c1ccc(Br)s1)C(=O)N2", "5.47 µM"),
    ("CCCOc1ccc(/C=N/Nc2cc(N3CCOCC3)ncn2)c(O)c1", "3.38 µM"),
]
